- systemName: UniProtKB P00491
- Sequence (P00491 whole entry): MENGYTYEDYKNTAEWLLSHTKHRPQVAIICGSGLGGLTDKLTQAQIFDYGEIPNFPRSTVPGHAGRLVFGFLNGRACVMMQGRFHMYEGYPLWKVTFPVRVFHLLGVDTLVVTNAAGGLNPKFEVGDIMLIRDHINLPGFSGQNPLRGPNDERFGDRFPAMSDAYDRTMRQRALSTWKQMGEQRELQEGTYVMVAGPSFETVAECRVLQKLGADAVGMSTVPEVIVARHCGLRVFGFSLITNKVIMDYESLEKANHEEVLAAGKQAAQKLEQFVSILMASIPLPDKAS
- procedureText: Inhibition of human erythrocyte PNP assessed as inhibition of 7-methylguanosine phosphorolysis after 50 mins by spectrophotometry in presence of 1 mM inorganic phosphate
- assayContext: read-out: Ki(app)
parameterMeasured: pKi
// returns pKi (minus log10 of molar concentration), number only

Measured pKi, Nc1nc2c(CCCCCCCC(F)(F)P(=O)(O)O)c[nH]c2c(=O)[nH]1 : 8.25

---

- procedureText: Dissociation constant, pKa at 2 mg by spectrophotometry
parameterMeasured: pKa
Output: the number by itself.

Cn1c(N)nc2ccn(C)c2c1=O
10.6

Measured pKa, Cn1c(N)nc2cc[nH]c2c1=O : 5.1
